Biological target: full-length human E6AP (C-terminal TEV-6xHis-Avi) (human, UniProt Q05086 1-875, biotin on the Avi tag (BirA biotin-protein ligase) in the SPR experiments)
Sequence (Q05086 whole entry): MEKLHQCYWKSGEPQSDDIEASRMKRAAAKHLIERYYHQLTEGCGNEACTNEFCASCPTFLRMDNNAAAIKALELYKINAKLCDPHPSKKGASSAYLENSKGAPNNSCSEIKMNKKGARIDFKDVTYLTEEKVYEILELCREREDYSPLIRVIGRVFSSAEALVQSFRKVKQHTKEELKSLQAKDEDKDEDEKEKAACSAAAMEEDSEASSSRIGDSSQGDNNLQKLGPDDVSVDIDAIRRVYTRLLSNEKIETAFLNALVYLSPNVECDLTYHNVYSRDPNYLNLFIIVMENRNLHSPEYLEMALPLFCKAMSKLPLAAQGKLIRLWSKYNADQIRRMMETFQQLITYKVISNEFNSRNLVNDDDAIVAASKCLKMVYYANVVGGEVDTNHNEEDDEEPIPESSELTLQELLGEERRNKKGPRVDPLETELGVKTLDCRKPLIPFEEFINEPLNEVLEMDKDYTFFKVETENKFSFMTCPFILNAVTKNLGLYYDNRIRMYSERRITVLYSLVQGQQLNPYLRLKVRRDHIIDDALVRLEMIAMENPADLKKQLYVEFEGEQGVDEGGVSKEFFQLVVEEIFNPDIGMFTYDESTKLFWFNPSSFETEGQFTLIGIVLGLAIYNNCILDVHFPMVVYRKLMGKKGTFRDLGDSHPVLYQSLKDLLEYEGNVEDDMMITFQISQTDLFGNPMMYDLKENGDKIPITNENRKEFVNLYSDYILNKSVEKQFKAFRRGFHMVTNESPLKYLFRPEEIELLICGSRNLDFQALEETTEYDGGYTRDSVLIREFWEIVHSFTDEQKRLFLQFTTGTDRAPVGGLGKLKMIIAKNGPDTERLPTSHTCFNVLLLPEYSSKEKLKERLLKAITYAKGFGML
Test: cell-based or functional assay
readoutKind: unmodified E6AP remaining after 30 min, E6AP autoubiquitination (%)
The reply should be a number in %, with the unit left off.

Answered examples (3):
# binder, readoutValue
measured = [
    ("MBP-16E6(4C4S) R84A (natural protein, Mutant of m2; source: E. coli BL21(DE3), purified (MBPTrap, SEC); not shown: MBP, N-terminal, kept) MHQKRTAMFQDPQERPRKLPQLCTELQTTIHDIILECVYCKQQLLRREVYDFAFRDLCIVYRDGNPYAVCDKCLKFYSKISEYAHYSYSLYGTTLEQQYNKPLSDLLIRCINCQKPLSPEEKQRHLDKKQRFHNIRGRWTGRCMSCSRSSRTRRETQL", 64.9),
    ("MBP-16E6(4C4S) R84E (natural protein, Mutant of m2; source: E. coli BL21(DE3), purified (MBPTrap, SEC); not shown: MBP, N-terminal, kept) MHQKRTAMFQDPQERPRKLPQLCTELQTTIHDIILECVYCKQQLLRREVYDFAFRDLCIVYRDGNPYAVCDKCLKFYSKISEYEHYSYSLYGTTLEQQYNKPLSDLLIRCINCQKPLSPEEKQRHLDKKQRFHNIRGRWTGRCMSCSRSSRTRRETQL", 64.9),
    ("MBP-16E6(4C4S) R62A (natural protein, Mutant of m2; source: E. coli BL21(DE3), purified (MBPTrap, SEC); not shown: MBP, N-terminal, kept) MHQKRTAMFQDPQERPRKLPQLCTELQTTIHDIILECVYCKQQLLRREVYDFAFRDLCIVYADGNPYAVCDKCLKFYSKISEYRHYSYSLYGTTLEQQYNKPLSDLLIRCINCQKPLSPEEKQRHLDKKQRFHNIRGRWTGRCMSCSRSSRTRRETQL", 9.3),
]

stdin: Please report the measured unmodified E6AP remaining after 30 min, E6AP autoubiquitination for MBP-16E6(4C4S) L57A (natural protein) MHQKRTAMFQDPQERPRKLPQLCTELQTTIHDIILECVYCKQQLLRREVYDFAFRDACIVYRDGNPYAVCDKCLKFYSKISEYRHYSYSLYGTTLEQQYNKPLSDLLIRCINCQKPLSPEEKQRHLDKKQRFHNIRGRWTGRCMSCSRSSRTRRETQL
stdout: 45.6

These data points were gathered from paper PMC10902388.
